Test system: Staphylococcus aureus
Test: microbe, parasite or virus in culture
Conditions: ATCC 29213
Description: Antibacterial activity against Staphylococcus aureus ATCC 29213 expressing norA after 18 to 24 hrs by two-fold broth microdilution method
ENDPOINT NAME: MIC (µg/mL)

{"COMPOUND": "NC[C@H]1O[C@H](O[C@H]2[C@H](O)[C@@H](O[C@H]3O[C@H](CO)[C@@H](O)[C@H](N)[C@H]3O)[C@H](N)C[C@@H]2N)[C@H](O)[C@@H](O)[C@@H]1O [KANAMYCIN]", "ASSAY TARGET": "Staphylococcus aureus", "ENDPOINT NAME": "MIC", "COMPARISON OPERATOR": "=", "VALUE REPORTED": 4}
{"COMPOUND": "Nc1ncc(C(=O)N(Cc2ccccc2)Cc2ccccc2)o1", "ASSAY TARGET": "Staphylococcus aureus", "ENDPOINT NAME": "MIC", "COMPARISON OPERATOR": ">", "VALUE REPORTED": 64}
{"COMPOUND": "C/C=C/C=C/C(=O)N[C@@H](CC(=O)N[C@H](C(=O)[C@@H]1C(=O)NC(=O)[C@H]1C)C(C)C)c1ccccc1", "ASSAY TARGET": "Staphylococcus aureus", "ENDPOINT NAME": "MIC", "COMPARISON OPERATOR": "=", "VALUE REPORTED": 4}
{"COMPOUND": "O=C(N[C@H](CO)[C@H](O)c1ccc([N+](=O)[O-])cc1)C(Cl)Cl [CHLORAMPHENICOL]", "ASSAY TARGET": "Staphylococcus aureus", "ENDPOINT NAME": "MIC", "COMPARISON OPERATOR": "=", "VALUE REPORTED": 8}

----------
Tested on: Staphylococcus aureus
Assay: microbe, parasite or virus in culture
Settings: ATCC 29213
ENDPOINT NAME: MIC

{"MOLECULE": "CC(C)[C@H](NC(=O)C[C@H](NC(=O)CCCCCCCCCCCCCCCOc1ccc(CN(Cc2ccccc2)C(=O)c2cnc(N)o2)cc1)c1ccccc1)C(=O)[C@@H]1C(=O)NC(=O)[C@H]1C", "VALUE REPORTED": "> 64 µg/mL"}
{"MOLECULE": "CC(C)[C@H](NC(=O)C[C@H](NC(=O)CCCCCCCOc1ccc(CN(Cc2ccccc2)C(=O)c2cnc(N)o2)cc1)c1ccccc1)C(=O)[C@@H]1C(=O)NC(=O)[C@H]1C", "VALUE REPORTED": "4 µg/mL"}
{"MOLECULE": "CO[C@H]1/C=C/O[C@@]2(C)Oc3c(C)c(O)c4c(O)c(c(/C=N/N5CCN(C)CC5)c(O)c4c3C2=O)NC(=O)/C(C)=C\\C=C\\[C@H](C)[C@H](O)[C@@H](C)[C@@H](O)[C@@H](C)[C@H](OC(C)=O)[C@@H]1C [RIFAMPIN]", "VALUE REPORTED": "≤ 0.03 µg/mL"}

----------
System: Escherichia coli
Test: Antibacterial activity against Escherichia coli D21 IpxC101 deletion mutant after 18 to 24 hrs by two-fold broth microdilution method
Assay type: functional
ENDPOINT NAME: MIC

{"RECORD SMILES": "O=C(N[C@H](CO)[C@H](O)c1ccc([N+](=O)[O-])cc1)C(Cl)Cl", "ENDPOINT NAME": "MIC", "VALUE REPORTED": "4 µg/mL"}
{"RECORD SMILES": "NC[C@H]1O[C@H](O[C@H]2[C@H](O)[C@@H](O[C@H]3O[C@H](CO)[C@@H](O)[C@H](N)[C@H]3O)[C@H](N)C[C@@H]2N)[C@H](O)[C@@H](O)[C@@H]1O", "ENDPOINT NAME": "MIC", "VALUE REPORTED": "1 µg/mL"}
{"RECORD SMILES": "C/C=C/C=C/C(=O)N[C@@H](CC(=O)N[C@H](C(=O)[C@@H]1C(=O)NC(=O)[C@H]1C)C(C)C)c1ccccc1", "ENDPOINT NAME": "MIC", "VALUE REPORTED": "4 µg/mL"}
{"RECORD SMILES": "CO[C@H]1/C=C/O[C@@]2(C)Oc3c(C)c(O)c4c(O)c(c(/C=N/N5CCN(C)CC5)c(O)c4c3C2=O)NC(=O)/C(C)=C\\C=C\\[C@H](C)[C@H](O)[C@@H](C)[C@@H](O)[C@@H](C)[C@H](OC(C)=O)[C@@H]1C", "ENDPOINT NAME": "MIC", "VALUE REPORTED": "0.06 µg/mL"}
